Value source: PubChem BioAssay (NCATS)

# method_summary: Drug repurposing screens with cells derived from glioblastoma tumor samples (AID 1345199); note: % is set by controls: 0 for no effect and ±100 for the full control effect; nearly all actives have a fitted effect of over 40% in size
# condition_description: GBM patient neurospheres viability, ATP luminescence, 48 h; at 46 µM (top of the series); tumour line A
Records with an inconclusive call do not appear. Active and inactive are the calls of the source. Calls come from the whole dose curve; as a rule, active = well fitted inhibition curve with a large enough effect; inconclusive = small, poorly fitted or top-dose-only effect; inactive = flat fitted curve, though single readings scatter.
Measured activity, negative = cell killing by item

O=C(O)/C=C/c1ccccc1 ... -20.1% (inactive)

Request the reported activity, negative = cell killing associated with O=C(OCc1ccccc1)c1cccnc1
-18.6% (inactive)

Record: CN[C@@H]1[C@H](O[C@H]2[C@H](O[C@H]3[C@H](O)[C@@H](O)[C@H](N=C(N)N)[C@@H](O)[C@@H]3N=C(N)N)O[C@@H](C)[C@]2(O)CO)O[C@@H](CO)[C@H](O)[C@H]1O
-5.62% (inactive)

Record: CCCCO
-9.11% (inactive)

Record: O=C(NCCNCC(O)COc1ccc(O)cc1)N1CCOCC1 (configuration not stated)
-55.7% (inactive)

Record: Cc1ncc(C[n+]2csc(CCOP(=O)(O)O)c2C)c(N)n1
-17% (inactive)

Record: O=C(O)[C@@H]1C[C@H](CP(=O)(O)O)CCN1
-21.2% (inactive)

Record: CC(C)CCCC(C)NC(C)C (configuration not stated)
-22.7% (inactive)

Record: COC(=O)c1ccccc1O
-21.5% (inactive)

Record: CC(=O)OCC1=C(C(=O)O)N2C(=O)[C@@H](NC(=O)Cc3ccccc3)[C@H]2SC1
-28.6% (inactive)

Record: CC[C@H](C)[C@@H]1NC(=O)[C@H](Cc2ccc(O)cc2)NC(=O)[C@@H](N)CSSC[C@@H](C(=O)N2CCC[C@H]2C(=O)N[C@@H](CC(C)C)C(=O)NCC(N)=O)NC(=O)[C@H](CC(N)=O)NC(=O)[C@H](CCC(N)=O)NC1=O
-11.4% (inactive)

Record: CC1(O)CCC(C(C)(C)O)CC1 (configuration not stated)
-16.9% (inactive)

---

# method_summary: Cell Viability - SH-SY5Y (AID 544);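 note: cells exposed to compound for 40 hours; nearly all actives have a fitted effect of over 55% in size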
# condition_description: SH-SY5Y neuroblastoma cell viability; series mostly up to 92.2 µM
Results filed as inconclusive are left out. The source made the active and inactive calls. Calls come from the whole dose curve; as a rule, active = well fitted cell-killing curve with a large enough effect; inconclusive = small, poorly fitted or top-dose-only effect; inactive = flat fitted curve, though single readings scatter.
Mark one answer only. Choices: YES (active), NO (inactive)

O=c1n(CC2CO2)c(=O)n(CC2CO2)c(=O)n1CC1CO1 (centres undefined) ... YES
Nc1ncnc2c1ncn2[C@H]1CC[C@@H](CO)O1 ... NO
Oc1ccc(/C=C/c2cc(O)cc(O)c2)cc1 ... NO
O=P(O)(O)O ... NO
ClC(Cl)Cl ... NO

Please share the test call associated with O.O.O.O.O.O.O.O=S(=O)([O-])[O-].[Co+2] .
NO

Record: Nc1nccs1
NO

Record: OCC(O)CO
NO

Record: CO
NO

---

# Test system: ATS189
# method_summary: qHTS profiling for inhibitors of Plasmodium falciparum proliferation (AID 504749); note: nearly all actives have a fitted effect of over 60% in size
# condition_description: P. falciparum in erythrocytes, SYBR Green DNA, 72 h; series mostly up to 28.7 µM
# Protocol: NIH National Institute of Allergy and Infectious Diseases [NIAID] NIH Chemical Genomics Center [NCGC] […] Because mature erythrocytes lack DNA, only Plasmodium-derived DNA is detected. NCGC Assay Protocol Summary: The SYBR Green viability assay was adapted from a method described previously (Plouffe et al., 2008). […] The following morning, fluorescence intensity at 485(14) nm excitation and 535(25) nm emission wavelengths was measured on an EnVision (Perkin Elmer) plate reader. […]
Records with an inconclusive call do not appear. Activity calls are given as the source filed them. Calls come from the whole dose curve; as a rule, active = well fitted inhibition curve with a large enough effect; inconclusive = small, poorly fitted or top-dose-only effect; inactive = flat fitted curve, though single readings scatter.
Mark one answer only. Choices: True = active, False = inactive

Would you please look over these solved cases?
O=C(O[C@H]1CN2CCC1CC2)N1CCc2ccccc2[C@@H]1c1ccccc1 ... False
CCCCC(CC)CCC(CC(C)C)OS(=O)(=O)O (stereo unspecified) ... False
COc1cc(C)c(/C=C/C(C)=C/C=C/C(C)=C/C(=O)O)c(C)c1C ... False
CN=C1C=CC(=C(c2ccc(N(C)C)cc2)c2ccc(N(C)C)cc2)C=C1 ... True

Please share the test call associated with CN(C)C=Nc1c(I)cc(I)c(CCC(=O)O)c1I .
False

Record: NCCO/C=C/[C@H](N)C(=O)O
False
